# target_or_test_system: rat TAAR1 (Rattus norvegicus, UniProt Q923Y9)
# Construct: expressed in transfected cells; host or cells: HEK293 (ATCC # CRL-1573), stably transfected with pIRESneo2 expression plasmid
# Sequence (Q923Y9 whole entry): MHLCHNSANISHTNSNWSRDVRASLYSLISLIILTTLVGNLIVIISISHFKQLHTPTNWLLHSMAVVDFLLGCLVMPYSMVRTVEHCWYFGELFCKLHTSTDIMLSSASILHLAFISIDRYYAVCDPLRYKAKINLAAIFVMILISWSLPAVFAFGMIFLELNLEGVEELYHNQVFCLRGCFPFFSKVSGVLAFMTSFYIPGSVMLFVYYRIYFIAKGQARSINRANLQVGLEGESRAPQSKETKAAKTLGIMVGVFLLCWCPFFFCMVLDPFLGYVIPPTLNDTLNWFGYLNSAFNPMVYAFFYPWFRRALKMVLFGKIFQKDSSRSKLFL
# experimental_details: TAAR1 radioligand binding with [3H]-rac-2-(1,2,3,4-tetrahydro-1-naphthyl)-2-imidazoline, membranes of stably transfected HEK293 cells
# experimental_context: second value of the cell, read-out: Ki (μM) mouse/rat: rat
attribute_measured: Ki (µM)
Give bare numbers, in µM.

Examples from the recorded data:
NC1=N[C@@H](CCc2ccc(NC(=O)Oc3cccc(C(F)(F)F)c3)cc2)CO1 : 0.0092
NC1=N[C@@H](CCc2ccc(NC(=O)C(F)(F)c3ccc(Cl)c(Cl)c3)cc2)CO1 : 0.0011
N#Cc1ccc(C(=O)Nc2ccc(CC[C@H]3COC(N)=N3)cc2)cn1 : 0.0057
COc1cc(C(=O)Nc2ccc(CC[C@H]3COC(N)=N3)cc2)nc(Cl)n1 : 0.0013
COc1cc(C(=O)Nc2ccc(CC[C@H]3COC(N)=N3)cc2)nc(OC)n1 : 0.004
NC1=N[C@@H](CCc2ccc(NC(=O)c3ccnc(Cl)c3F)cc2)CO1 : 0.0016
N#Cc1ccc(NC(=O)c2ccc(CC[C@H]3COC(N)=N3)cc2)cc1 : 0.0011
NC1=N[C@@H](CCc2ccc(NC(=O)c3cc(F)cnc3F)cc2)CO1 : 0.0012

// next entry
Entry `NC1=N[C@@H](CCc2ccc(NC(=O)c3ccc(Cl)cc3F)cc2)CO1` , tested on rat TAAR1 (Rattus norvegicus, UniProt Q923Y9), has a reported Ki of 0.0006
